system: 186277-243-T-J2-PDC complex spheroid growth; assay: Anticancer human tumor 186277-243-T-J2-PDC patient-derived colon adenocarcinoma cell line growth inhibition [AhR]; conditions: second compound 1 µM; first compound 0.00949 µM; stronger effect = lower value
Doc: threshold 90% (exclusive). Items with viability, T/C beneath it return met; others return not met.

State whether 90% exceeds viability, T/C recorded for CC(C)CC(NC(=O)C(Cc1ccccc1)NC(=O)c1cnccn1)B(O)O (configuration not stated) + Cc1cncc(-c2nc(NCCc3c[nH]c4ccccc34)c3ncn(C(C)C)c3n2)c1 .
not met

Determine if CCc1c2c(nc3ccc(O)cc13)-c1cc3c(c(=O)n1C2)COC(=O)[C@]3(O)CC + Cc1cncc(-c2nc(NCCc3c[nH]c4ccccc34)c3ncn(C(C)C)c3n2)c1 shows viability, T/C strictly lower than 90%.
met

Just wondering, is viability, T/C of O=C(C=Cn1cnc(-c2cc(C(F)(F)F)cc(C(F)(F)F)c2)n1)NNc1cnccn1 + Cc1ccccc1N=Nc1ccc(NC(=O)c2ccnn2C)c(C)c1 below 90%?
not met

Please let me know if CCN(c1cc(-c2ccc(CN3CCOCC3)cc2)cc(C(=O)NCc2c(C)cc(C)[nH]c2=O)c1C)C1CCOCC1 + Cc1cncc(-c2nc(NCCc3c[nH]c4ccccc34)c3ncn(C(C)C)c3n2)c1 shows viability, T/C below 90%.
not met

Here's an entry: Nc1ncn(C2CC(O)C(CO)S2)c(=O)n1 (configuration not stated) + Cc1cncc(-c2nc(NCCc3c[nH]c4ccccc34)c3ncn(C(C)C)c3n2)c1 . Is its viability, T/C below 90%?
not met

Is 90% strictly greater than the compound's reported viability, T/C? compound: O=C(C=Cn1cnc(-c2cc(C(F)(F)F)cc(C(F)(F)F)c2)n1)NNc1cnccn1 + Cc1cncc(-c2nc(NCCc3c[nH]c4ccccc34)c3ncn(C(C)C)c3n2)c1
not met

Does the reported viability, T/C of CCc1c2c(nc3ccc(O)cc13)-c1cc3c(c(=O)n1C2)COC(=O)[C@]3(O)CC + Cc1ccccc1N=Nc1ccc(NC(=O)c2ccnn2C)c(C)c1 stay below 90%?
not met

Record Nc1ncn(C2CC(O)C(CO)S2)c(=O)n1 (configuration not stated) + Cc1ccccc1N=Nc1ccc(NC(=O)c2ccnn2C)c(C)c1 : is its viability, T/C strictly below 90%?
not met

Given the entry CCc1c2c(nc3ccc(O)cc13)-c1cc3c(c(=O)n1C2)COC(=O)[C@]3(O)CC + CC(CO)NC(=O)c1cc(-c2ccc(Cl)cc2)nn(-c2cnn(C)c2)c1=O , would its reported viability, T/C be below 90%?
met

Quick check: viability, T/C of CCN(c1cc(-c2ccc(CN3CCOCC3)cc2)cc(C(=O)NCc2c(C)cc(C)[nH]c2=O)c1C)C1CCOCC1 + Cc1ccccc1N=Nc1ccc(NC(=O)c2ccnn2C)c(C)c1 under 90%?
not met

Criterion: viability, T/C strictly below 90%. Is it met by Nc1ncn(C2CC(O)C(CO)S2)c(=O)n1 (configuration not stated) + CC(CO)NC(=O)c1cc(-c2ccc(Cl)cc2)nn(-c2cnn(C)c2)c1=O ?
not met

----------
test system: 186277-243-T-J2-PDC complex spheroid growth; assay: Anticancer human tumor 186277-243-T-J2-PDC cell line growth inhibition [AhR]; settings: second compound 0.1 µM; first compound 10 µM; active = viability on the fitted dose curve at most 10% of control; inactive = the rest;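 note: luminescent signal used as a stand-in for viable cell amount; spheroids exposed to compounds for seven days before the viability read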
Would you mind answering with one of these outcomes? YES for active, NO for inactive

Record lookup: outcome of this test for CC(C)c1c(-c2ccccc2)nc2c(C#N)c[nH]n2c1=O + Cc1cncc(-c2nc(NCCc3c[nH]c4ccccc34)c3ncn(C(C)C)c3n2)c1 ?
NO

Which outcome did this test record for the compound CC1COCCN1c1cc(C2(S(C)(=N)=O)CC2)nc(-c2ccnc3[nH]ccc23)n1 (stereo unspecified) + Cc1cncc(-c2nc(NCCc3c[nH]c4ccccc34)c3ncn(C(C)C)c3n2)c1 ?
YES

What did the test return for COc1cccc2c1C(=O)c1c(O)c3c(c(O)c1C2=O)CC(O)(C(=O)CO)CC3OC1CC(N)C(O)C(C)O1 (stereo unspecified) + Cc1cncc(-c2nc(NCCc3c[nH]c4ccccc34)c3ncn(C(C)C)c3n2)c1 ?
YES

// param item: COc1cc(C2c3cc4c(cc3C(OC3OC5COC(C)OC5C(O)C3O)C3COC(=O)C23)OCO4)cc(OC)c1O (stereo unspecified) + CC(CO)NC(=O)c1cc(-c2ccc(Cl)cc2)nn(-c2cnn(C)c2)c1=O ; yields the recorded call
NO

Which outcome did this test record for the compound CC1COCCN1c1cc(C2(S(C)(=N)=O)CC2)nc(-c2ccnc3[nH]ccc23)n1 (stereo unspecified) + CC(CO)NC(=O)c1cc(-c2ccc(Cl)cc2)nn(-c2cnn(C)c2)c1=O ?
YES

Hi, do you know how CC1COCCN1c1cc(C2(S(C)(=N)=O)CC2)nc(-c2ccnc3[nH]ccc23)n1 (stereo unspecified) + Cc1ccccc1N=Nc1ccc(NC(=O)c2ccnn2C)c(C)c1 came out in this test?
NO

Hey, just so you know, these numbers are from PubChem BioAssay AID1918991.
